Target: panel of more than 300 wild-type and mutant kinases (313 kinase panel) (Homo sapiens)
Sequence (Q9NRM7 1-1088): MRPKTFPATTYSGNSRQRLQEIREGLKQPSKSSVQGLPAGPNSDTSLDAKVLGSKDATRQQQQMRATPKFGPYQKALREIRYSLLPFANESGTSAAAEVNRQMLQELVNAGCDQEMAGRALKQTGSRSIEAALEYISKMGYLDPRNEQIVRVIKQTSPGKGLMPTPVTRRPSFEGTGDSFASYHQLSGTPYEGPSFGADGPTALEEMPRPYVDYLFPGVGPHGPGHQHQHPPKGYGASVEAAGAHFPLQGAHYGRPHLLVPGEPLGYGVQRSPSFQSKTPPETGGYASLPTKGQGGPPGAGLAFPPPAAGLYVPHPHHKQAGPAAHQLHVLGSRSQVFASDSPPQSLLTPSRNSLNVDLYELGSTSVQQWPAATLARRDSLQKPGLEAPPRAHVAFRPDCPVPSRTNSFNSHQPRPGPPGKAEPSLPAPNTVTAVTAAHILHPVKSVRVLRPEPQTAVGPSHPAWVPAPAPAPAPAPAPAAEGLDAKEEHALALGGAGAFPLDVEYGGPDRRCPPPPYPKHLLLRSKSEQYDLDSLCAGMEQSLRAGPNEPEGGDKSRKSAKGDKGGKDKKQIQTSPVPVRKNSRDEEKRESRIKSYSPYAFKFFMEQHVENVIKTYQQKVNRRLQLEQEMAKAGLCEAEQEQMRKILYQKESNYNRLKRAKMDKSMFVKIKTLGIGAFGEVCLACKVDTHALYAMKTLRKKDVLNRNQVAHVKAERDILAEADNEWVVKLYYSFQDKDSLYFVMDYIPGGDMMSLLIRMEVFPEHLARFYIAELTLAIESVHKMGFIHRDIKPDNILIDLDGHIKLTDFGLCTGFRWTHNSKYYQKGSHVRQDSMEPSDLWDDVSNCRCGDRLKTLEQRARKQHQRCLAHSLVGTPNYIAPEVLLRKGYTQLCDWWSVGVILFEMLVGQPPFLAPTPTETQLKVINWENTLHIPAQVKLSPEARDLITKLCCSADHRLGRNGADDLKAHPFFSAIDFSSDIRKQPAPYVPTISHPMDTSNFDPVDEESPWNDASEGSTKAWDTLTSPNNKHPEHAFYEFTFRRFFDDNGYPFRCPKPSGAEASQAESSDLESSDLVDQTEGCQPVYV
Experiment: Kinase profiling in a biochemical assay panel (mobility shift assays and ELISA), %-inhibition at 1 μM; selectivity entropy
Conditions: kinase LATS2; compound at 1 μM
Measured Property: %-inhibition of LATS2 (%)
Write down the numeric answer in % and omit the unit.

Completed entries (count: 3):
Smi: Cc1ccc(C(=O)Nc2ccc(CN3CCN(C)CC3)c(C(F)(F)F)c2)cc1C#Cc1cnc2cccnn12
Unit Abbreviation: %
%-inhibition of LATS2: 16

Smi: CO[C@H]1C[C@@H]2CC[C@@H](C)[C@@](O)(O2)C(=O)C(=O)N2CCCC[C@H]2C(=O)O[C@H]([C@H](C)C[C@@H]2CC[C@@H](OCCO)[C@H](OC)C2)CC(=O)[C@H](C)/C=C(\C)[C@@H](O)[C@@H](OC)C(=O)[C@H](C)C[C@H](C)/C=C/C=C/C=C/1C
Unit Abbreviation: %
%-inhibition of LATS2: -13

Smi: CCCS(=O)(=O)Nc1ccc(F)c(C(=O)c2c[nH]c3ncc(-c4ccc(Cl)cc4)cc23)c1F
Unit Abbreviation: %
%-inhibition of LATS2: -2.28

For the next question, use this molecule.
In plain terms, C[C@@H](Oc1cc(-c2cnn(C3CCNCC3)c2)cnc1N)c1c(Cl)ccc(F)c1Cl has a documented %-inhibition of LATS2 of -6

Origin of measurements: paper PMC3961306
